Assay: Visual solubility estimate of amorphous Compound 1 in solvents
Type: physicochemical
Details: toluene, 40 °C, organic solvent or mixture, thermodynamic from solid, Toluene; 40° C.; read-out: Solubility at 40° C.
metric_name: solubility

In [3]: df
Out[3]:
                            smiles_notation        result
0  CC(=O)c1nn(CC(=O)N2C[C@H](F)C[C@H]2C(=O)Nc2cccc(Br)n2)c2ccc(-c3cnc(C)nc3)cc12  > 5350 µg/mL

====

Assay: Visual solubility estimate of amorphous Compound 1 in solvents
Assay type: physicochemical
Conditions: heptane, 40 °C, organic solvent or mixture, thermodynamic from solid
metric_name: solubility

                            smiles_notation  metric_name        result
0  CC(=O)c1nn(CC(=O)N2C[C@H](F)C[C@H]2C(=O)Nc2cccc(Br)n2)c2ccc(-c3cnc(C)nc3)cc12   solubility  < 5590 µg/mL

These data points were gathered from patent US11814363B2.
